# Target Or System: Gag-Pol polyprotein (Human immunodeficiency virus type 1 group M subtype B (isolate HXB2)) (UniProt P04585)
# Measurement Notes: RNase H inhibition, HIV 1 Gag Pol polyprotein, FRET biochemical assay, screening (AID 372)
# Assay Conditions: HIV-1 RT RNase H, FRET RNA/DNA substrate fluorescence; at 10 µM; active compounds read high
Hit rate of the full screen: of about 100,000 compounds, about 770 (0.77%) were called active. Only a selection was taken, and actives are over-represented in it overall.
inhibition by entry:

{"columns": ["Compound Smiles", "Result"],
 "data": [
  ["O=C(N/N=C/c1c[nH]c2ccccc12)c1cc(O)cc(O)c1", "8% (inactive)"],
  ["Cc1ccc(OCCOc2ccc(Cl)cc2/C=C2\\SC(=S)NC2=O)c(C)c1", "43% (inactive)"],
  ["COc1ccc(OCCOc2cccc(/C=C3\\SC(=S)NC3=O)c2)cc1", "18% (inactive)"],
  ["O=C(N/N=C/c1coc2ccccc2c1=O)c1cc(O)cc(O)c1", "55% (active)"],
  ["O=C(N/N=C/c1ccccc1Cl)c1cccc(Cl)c1", "8% (inactive)"],
  ["O=C1NC(=S)S/C1=C/c1cccc(OCc2ccccc2Cl)c1", "42% (inactive)"],
  ["O=C(N/N=C/c1ccc(Cl)cc1Cl)c1ccc(O)c(O)c1", "57% (active)"],
  ["O=C(N/N=C/c1ccc(Cl)cc1Cl)c1ccccc1Cl", "5% (inactive)"]
]}

## Task What does the record list as inhibition for O=C(N/N=C/c1ccc(Cl)cc1Cl)c1cc(Br)ccc1O ?
## Result 0% (inactive)

## Task # iterate: Cc1ccccc1/C=N/NC(=O)c1cc(O)cc(O)c1
## Result 2% (inactive)

## Task # iterate: Cc1ccc(OCCOc2cccc(/C=C3\SC(=S)NC3=O)c2)c(C)c1
## Result 40% (inactive)

###

# Target Or System: Gag-Pol polyprotein (Human immunodeficiency virus type 1 group M subtype B (isolate HXB2))
# Measurement Notes: RNase H inhibition, HIV 1 Gag Pol polyprotein, FRET biochemical assay, screening (AID 372)
# Assay Conditions: HIV-1 RT RNase H, FRET RNA/DNA substrate fluorescence; at 10 µM; active compounds read high
About 770 (0.77%) of roughly 100,000 compounds were called active. The list comes from a sample in which actives are over-represented; it also holds close analogues and randomly drawn compounds.
inhibition by entry:
Expressed in %, but write only the number.

{"columns": ["Compound", "inhibition (%)"],
 "data": [
  ["COc1ccc(S(=O)(=O)N(CC(=O)NCCSCc2ccc(Cl)cc2)c2cc(C)cc(C)c2)cc1OC", 12]
]}

## Task What does the record list as inhibition for Cc1ccc(OCC(=O)Nc2cc(C(F)(F)F)cc(C(F)(F)F)c2)cc1C ?
## Result 0

## Task # iterate: CC(=O)C(=Nc1ccc(C)cc1C)NNc1cc(C(N)=O)c(Cl)cc1Cl
## Result 70

###

# Target Or System: Gag-Pol polyprotein (Human immunodeficiency virus type 1 group M subtype B (isolate HXB2)) (UniProt P04585)
# Measurement Notes: RNase H inhibition, HIV 1 Gag Pol polyprotein, FRET biochemical assay, screening (AID 372)
# Assay Conditions: HIV-1 RT RNase H, FRET RNA/DNA substrate fluorescence; at 10 µM; active compounds read high
The campaign covered roughly 100,000 compounds. About 770 (0.77%) were called active. The sample holds actives, similar compounds and a random draw of the others, so the mix is not that of the screen.
Reported Property: inhibition

Consider the worked cases shown below.
{"columns": ["Molecule", "Reported Property", "Result"],
 "data": [
  ["Cc1cc(I)ccc1NC(=O)c1ccc(-c2ccccc2[N+](=O)[O-])o1", "inhibition", "49% (inactive)"],
  ["O=[N+]([O-])c1ccc2c(c1)C(C#Cc1ccccc1)C1CCCCC1(N1CCOCC1)O2 (stereo not given)", "inhibition", "57% (active)"],
  ["COC(=O)C1=C(C(=O)OC)SC(=C2C(=S)C(C)(C)N(C(=O)/C=C/c3ccc(OC)c(OC)c3)c3ccc(OC)cc32)S1", "inhibition", "53% (active)"]
]}

## Task What does the record list as inhibition for COc1ccc2c(c1)-c1c(ssc1=S)C(C)(C)N2C(=O)/C=C/c1ccc(OC)c(OC)c1 ?
## Result 27% (inactive)

## Task # iterate: CN1c2ccccc2-c2ccccc2C12C=Cc1cc(Br)ccc1O2 (stereo not given)
## Result 6% (inactive)

## Task # iterate: Cc1ccc2c(c1)N(C(=O)CN1C(=O)c3ccccc3C1=O)C(C)(C)c1ssc(=S)c1-2
## Result 10% (inactive)

## Task # iterate: COC(=O)C1=C(C(=O)OC)SC(=C2C(=S)C(C)(C)N(C(=O)/C=C/c3ccc(OC)cc3)c3ccc(C)cc32)S1
## Result 22% (inactive)

## Task # iterate: CN1c2ccccc2-c2ccccc2C12C=Cc1cc(Br)cc(Br)c1O2 (stereo not given)
## Result 17% (inactive)

###

# Target Or System: Gag-Pol polyprotein (Human immunodeficiency virus type 1 group M subtype B (isolate HXB2))
# Measurement Notes: RNase H inhibition, HIV 1 Gag Pol polyprotein, FRET biochemical assay, screening (AID 372)
# Assay Conditions: HIV-1 RT RNase H, FRET RNA/DNA substrate fluorescence; at 10 µM; active compounds read high
In all, about 100,000 compounds went through this assay and about 770 (0.77%) were called active. The sample holds actives, similar compounds and a random draw of the others, so the mix is not that of the screen.
Reported Property: inhibition (%)
Expressed in %, but write only the number.

Consider the worked cases shown below.
{"columns": ["Compound Smiles", "inhibition (%)"],
 "data": [
  ["Cc1c(Cl)cccc1-c1ccc(C(=O)Nc2ccc(-c3nc4ccccc4o3)cc2)o1", 54],
  ["O=C(Nc1ccc2oc(-c3cc(Br)ccc3Cl)nc2c1)c1ccc([N+](=O)[O-])o1", 20],
  ["O=C(Nc1ccc(Cl)c([N+](=O)[O-])c1)c1ccc(-c2ccc(Cl)c(Cl)c2)o1", 7],
  ["Cc1c(Cl)cccc1-c1ccc(C(=O)Nc2cccc(-c3nc4ccccc4o3)c2)o1", 10]
]}

Next, consider the following compound.
## Task Request: inhibition, test system Gag-Pol polyprotein (Human immunodeficiency virus type 1 group M subtype B (isolate HXB2)), entry O=C(Nc1ccc2oc(-c3ccccc3)nc2c1)c1ccc(-c2ccc([N+](=O)[O-])cc2)o1
## Result 54

###

# Target Or System: Gag-Pol polyprotein (Human immunodeficiency virus type 1 group M subtype B (isolate HXB2)) (UniProt P04585)
# Measurement Notes: RNase H inhibition, HIV 1 Gag Pol polyprotein, FRET biochemical assay, screening (AID 372)
# Assay Conditions: HIV-1 RT RNase H, FRET RNA/DNA substrate fluorescence; at 10 µM; active compounds read high
In all, about 100,000 compounds went through this assay and about 770 (0.77%) were called active. The sample as a whole holds a higher share of actives than the screen did.
criterion met means recorded inhibition is 10% or above; criterion not met means it is below 10%.

These recorded examples may help you get a feel for the data.
{"columns": ["Compound", "Assigned Class"],
 "data": [
  ["COc1cccc(OCCCCOc2ccc(Cl)cc2C)c1", "criterion met"],
  ["CC(=O)N(C)c1ccc(NC(=O)/C=C/c2cccc3ccccc23)cc1", "criterion met"],
  ["COc1ccc(OC)c(CN2CCN(Cc3cccc(Br)c3)CC2)c1", "criterion not met"],
  ["Cc1ccc(C(=O)NNC(=S)NC(C)(C)C)cc1", "criterion not met"]
]}

## Task Assess whether reported inhibition for COc1ccccc1/C=N/NC(=O)C(C)Sc1nc(C)cc(C)n1 (stereo unspecified) sits at 10% or higher.
## Result criterion met

## Task # iterate: O=C(c1ccccc1)c1ccc(O)c(O)c1
## Result criterion met

###

inhibition by entry:
# Target Or System: Gag-Pol polyprotein (Human immunodeficiency virus type 1 group M subtype B (isolate HXB2))
# Measurement Notes: RNase H inhibition, HIV 1 Gag Pol polyprotein, FRET biochemical assay, screening (AID 372)
# Assay Conditions: HIV-1 RT RNase H, FRET RNA/DNA substrate fluorescence; at 10 µM; active compounds read high
The campaign covered roughly 100,000 compounds. About 770 (0.77%) were called active. Only a selection was taken, and actives are over-represented in it overall.
Expressed in %, but write only the number.

{"columns": ["Molecule", "Target Or System", "inhibition, %"],
 "data": [
  ["CCOC(=O)C1=C(C)N=c2s/c(=C\\c3ccc(OCc4cccc5ccccc45)c(OCC)c3)c(=O)n2C1c1ccc(OC)c(OC)c1 (centres undefined)", "Gag-Pol polyprotein (Human immunodeficiency virus type 1 group M subtype B (isolate HXB2))", 0],
  ["CCOC(=O)C1=C(C)N=c2s/c(=C\\c3ccc(OCc4cccc5ccccc45)c(OC)c3)c(=O)n2C1c1ccc(OC)cc1 (centres undefined)", "Gag-Pol polyprotein (Human immunodeficiency virus type 1 group M subtype B (isolate HXB2))", 14],
  ["CCOC(=O)C1=C(C)N=c2s/c(=C/c3ccc(-c4ccc(C)c([N+](=O)[O-])c4)o3)c(=O)n2C1c1ccc(N(C)C)cc1 (centres undefined)", "Gag-Pol polyprotein (Human immunodeficiency virus type 1 group M subtype B (isolate HXB2))", 43]
]}

Next, consider the following molecule.
## Task What does the record list as inhibition for CCOC(=O)C1=C(C)N=c2s/c(=C\c3ccc(OCc4cccc5ccccc45)c(OC)c3)c(=O)n2C1c1ccc(OC)c(OC)c1 (centres undefined) ?
## Result 55
